Taken from patent US20250270324A1.

subject.of.test: T1, human PD-L1-rCD4-His (human)
T1 construct: Human PD-L1 fused to the monomeric C-terminal rat CD4 domains 3 and 4 tag and His tag; made in HEK293; The entry as printed begins with the signal peptide (MRIF...); also called hPD-L1-rCD4-His; hu-PD-L1-rCD4-His
measurement.notes: SPR, IgG1 from culture supernatant
Kd listing for selected binders.

| binder | Kd [nM] |
| --- | --- |
| G1/929_01_A12 (antibody, human IgG1, V domains shown, IgG1) VH: EVQLVQSGAEVKRPGASVKVSCKASGYTFTSYGISWVRQAPGQGLEWMGWISAYSGNANYAQKLQGRVTMTTDTSTSTAYMELRSLRSDDTAVYYCARDLFPTIFGVSYYYYWGQGTLVTVSS VL: DIQMTQSPSTLSASVGDRVTITCRASQSISGRLAWYQQKPGKAPNLLIYEASNLESGVPSRFSGSGSGTEFTLTISSLQPEDFATYYCQQSYSWPRTFGQGTKVEIKR | 0.51 |
| G1/929_01_A03 (antibody, human IgG1, V domains shown, IgG1) VH: EVQLVQSGAEVKRPGASVKVSCKASGYTFTSYGISWVRQAPGQGLEWMGWISAYSGNANYAQKLQGRVTMTTDTSTSTAYMELRSLRSDDTAVYYCARDLFPTIFGVSYYYYWGQGTLVTVSS VL: DIQMTQSPSTLSASVRDRVIITCRASQSIGNRLAWYQHKPGKAPKLLIYEASTSETGVPSRFSGSGSGTDFTLTISSLQPEDFATYYCQQSYSTPYTFGQGTKLEIKR | 2.66 |
| G1/929_01_A04 (antibody, human IgG1, V domains shown, IgG1; GGST variant of G1/894_08_A05) VH: EVQLVQSGAEVKRPGASVKVSCKASGYTFTSYGISWVRQAPGQGLEWMGWISAYGGSTNYAQKLQGRVTMTTDTSTSTAYMELRSLRSDDTAVYYCARDLFPTIFGVSYYYYWGQGTLVTVSS VL: DIQMTQSPSTLSASVGDRVTITCRASQSISGRLAWYQQKPGKAPNLLIYEASNLESGVPSRFSGSGSGTEFTLTINSLQPDDFATYYCQQANTFPRVSFGGGTKVEIKR | 0.47 |
